Origin of measurements: patent US9464064B2

# Test system: Huh-7.5 cells
# method-summary: Cell viability assay ([…]-GLO)
# Format: cell-based, human
# measurement-context: 10 μM
Can you tell me Cell Viability (% @ 10 μM) for the items I'm about to list?
State just the number; it will be interpreted in %.

Recorded Cell Viability (% @ 10 μM) for Cc1ccc2nc(-c3ccc(NC(=S)Nc4ccccc4Br)cc3)sc2c1 with Huh-7.5 cells, please? 39

Recorded Cell Viability (% @ 10 μM) for Cc1ccc2nc(-c3ccc4nc(-c5ccc(NC(=O)c6cccc(Cl)c6)cc5)sc4c3)sc2c1S(=O)(=O)O with Huh-7.5 cells, please? 112

Recorded Cell Viability (% @ 10 μM) for Cc1ccc2nc(-c3ccc4nc(-c5ccc(NC(=O)c6c(F)cccc6C(F)(F)F)cc5)sc4c3)sc2c1S(=O)(=O)O with Huh-7.5 cells, please? 122

Recorded Cell Viability (% @ 10 μM) for COc1ccc(C(=O)Nc2ccc(-c3nc4ccc(-c5nc6ccc(C)c(S(=O)(=O)O)c6s5)cc4s3)cc2)cc1 with Huh-7.5 cells, please? 85

* * *

# experimental-target: HCV NS3 helicase NS3h_1b(con1) (Hepatitis C virus genotype 1b)
# Construct: truncated C-terminally His-tagged NS3 proteins lacking the N-terminal protease, called NS3h; His-tag (C); made in house
# method-summary: MBHA screen of NCI mechanistic set library at 20 μM (percent inhibition, compound interference)
# Assay type: biochemical
# measurement-context: compounds at 20 μM; assay interference calculated with Equation 2 (fluorescence vs DMSO-only controls before ATP)
Dear colleague, classification is by Int.* (Ratio) (Interference), with ranges listed here: group A (below 0.9 Ratio), group B (0.9 Ratio to below 1 Ratio), group C (1 Ratio or more)

Band for the recorded Int.* (Ratio) (Interference) of COc1ccc(N=C2C(=Nc3ccc(OC)cc3)N(c3ccc(N(C)C)cc3)C(=S)N2c2ccc(OC)cc2)cc1 ? group A

Band for the recorded Int.* (Ratio) (Interference) of Nc1ncnc2c([C@@H]3O[C@H](CO)[C@@H](O)[C@H]3O)c[nH]c12 ? group B

Band for the recorded Int.* (Ratio) (Interference) of CN(C)c1ccc(/C=C2/C=Cc3ccccc32)cc1 ? group C

Band for the recorded Int.* (Ratio) (Interference) of CC(C)=CCC(OC(=O)C=C(C)C)C1=CC(=O)c2c(O)ccc(O)c2C1=O (centres unmarked) ? group B

Band for the recorded Int.* (Ratio) (Interference) of CO[C@@H]1C[C@](C)(O)Cc2cc3c(c(O)c21)C(=O)c1c(O)cc2c(c1C3=O)O[C@@H]1O[C@@]2(C)[C@H](O)[C@@H](N(C)C)[C@@H]1O ? group A

Band for the recorded Int.* (Ratio) (Interference) of O=C(C=C1SCCS1)/C=C\c1ccc(Cl)cc1 ? group C

Band for the recorded Int.* (Ratio) (Interference) of CCCNC1=C(C)C(=O)C2=C(C1=O)[C@H](COC(N)=O)[C@]1(OC)[C@@H]3N[C@@H]3CN21 ? group B

* * *

# experimental-target: HCV NS3 helicase NS3h_1b(con1) (Hepatitis C virus genotype 1b, UniProt Q9WMX2)
# Construct: truncated C-terminally His-tagged NS3 proteins lacking the N-terminal protease, called NS3h; His-tag (C); made in house
# Sequence (Q9WMX2 1192-1657): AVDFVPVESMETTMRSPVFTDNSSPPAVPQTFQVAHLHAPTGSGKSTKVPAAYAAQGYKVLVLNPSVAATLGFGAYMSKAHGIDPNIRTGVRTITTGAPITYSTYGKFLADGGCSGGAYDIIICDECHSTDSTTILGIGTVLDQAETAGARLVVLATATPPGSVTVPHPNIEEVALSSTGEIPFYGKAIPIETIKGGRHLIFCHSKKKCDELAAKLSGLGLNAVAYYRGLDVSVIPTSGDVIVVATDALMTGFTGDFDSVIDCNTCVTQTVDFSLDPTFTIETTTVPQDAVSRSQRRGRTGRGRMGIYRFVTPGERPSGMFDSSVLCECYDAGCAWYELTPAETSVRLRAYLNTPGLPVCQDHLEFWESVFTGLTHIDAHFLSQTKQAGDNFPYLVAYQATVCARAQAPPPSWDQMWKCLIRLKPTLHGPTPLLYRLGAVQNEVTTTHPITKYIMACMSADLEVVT
# method-summary: MBHA screen of NCI mechanistic set library at 20 μM (percent inhibition, compound interference)
# Format: biochemical
# measurement-context: compounds at 20 μM, MBHA with a DNA substrate; calculated from Equation 1
Can you tell me Inh. (%) (Inhibition) for the items I'm about to list?
Provide a numeric answer, followed by its unit.

Field request: Inh. (%) (Inhibition) | item: COc1cc2c3c(c1OC)-c1cc4c(cc1CC3(C#N)N(C(=O)c1ccccc1)CC2)OCO4 (stereo not shown) −3.6%

Field request: Inh. (%) (Inhibition) | item: Cc1c(N=Cc2ccc(N(CCC#N)CCC#N)cc2)c(=O)n(-c2ccccc2)n1C −30.3%

Field request: Inh. (%) (Inhibition) | item: CCOC(=O)c1ccc(N=Cc2ccc(N(CCC#N)CCC#N)cc2)cc1 −45.1%

Field request: Inh. (%) (Inhibition) | item: N#Cc1cn([C@@H]2O[C@H](CO)[C@@H](O)[C@H]2O)c2ncnc(N)c12 −3.8%

* * *

# experimental-target: HCV NS3 helicase NS3h_1b(con1) (Hepatitis C virus genotype 1b, UniProt Q9WMX2)
# Construct: truncated C-terminally His-tagged NS3 proteins lacking the N-terminal protease, called NS3h; His-tag (C); made in house
# method-summary: MBHA screen of NCI mechanistic set library at 20 μM (percent inhibition, compound interference)
# Assay type: biochemical
# measurement-context: compounds at 20 μM, MBHA with a DNA substrate; calculated from Equation 1
measured-metric: Inh. (%) (Inhibition)
Provide a numeric answer, followed by its unit.

Field request: Inh. (%) (Inhibition) | item: COC1(O)C(=O)c2ccccc2OC1(OC)c1ccccc1 (stereo not drawn) 7.7%

Field request: Inh. (%) (Inhibition) | item: CC(O)CCC(=O)c1ccoc1 (stereo not drawn) 10.5%

Field request: Inh. (%) (Inhibition) | item: O=C(Nc1ccccc1-c1nn(C(=S)Nc2ccccc2)c(=S)n(C(=S)Nc2ccccc2)c1=O)C(F)(F)F −4.2%

Field request: Inh. (%) (Inhibition) | item: COc1cc(OC)c2c(C)cc(=O)oc2c1 9.3%

Field request: Inh. (%) (Inhibition) | item: Cc1ccccc1NC(=O)C(=O)C(C(=O)c1ccccc1F)C1OC(=O)c2ccccc21 (stereo not drawn) −39.7%

Field request: Inh. (%) (Inhibition) | item: Cc1cccc(Cl)c1NC(=O)/C=C/c1ccccc1 −6.3%

Field request: Inh. (%) (Inhibition) | item: CC(=O)OCc1cc(=O)n(C)c2c3c4c(cc12)c(C)cc(=O)n4CO3 7.1%

Field request: Inh. (%) (Inhibition) | item: CN(C)C[C@H]1CC[C@@H](CN(C)C)C1=O.Cl.Cl 10.6%

Field request: Inh. (%) (Inhibition) | item: CCC[CH2][Sn]([CH2]CCC)([CH2]CCC)[O]c1cc(Cl)c(Cl)cc1Cl 11.5%

* * *

# experimental-target: HCV NS3 helicase NS3h_1b(con1) (Hepatitis C virus genotype 1b, UniProt Q9WMX2)
# Construct: truncated C-terminally His-tagged NS3 proteins lacking the N-terminal protease, called NS3h; His-tag (C); made in house
# method-summary: MBHA screen of NCI mechanistic set library at 20 μM (percent inhibition, compound interference)
# Type: biochemical
# measurement-context: compounds at 20 μM; assay interference calculated with Equation 2 (fluorescence vs DMSO-only controls before ATP)
measured-metric: Int.* (Ratio) (Interference)
State just the number; it will be interpreted in Ratio.

Field request: Int.* (Ratio) (Interference) | item: COC1(O)C(=O)c2ccccc2OC1(OC)c1ccccc1 (stereo not drawn) 0.90

Field request: Int.* (Ratio) (Interference) | item: COc1ccc(/C=C2\N=C(c3ccccc3)OC2=O)c(OCc2ccccc2)c1 0.95

Field request: Int.* (Ratio) (Interference) | item: Cc1nc(-n2nc(-c3ccccc3)cc2-c2ccccc2)sc1C(=O)/C=C/c1ccc(Cl)c(Cl)c1 0.90

Field request: Int.* (Ratio) (Interference) | item: Cl.NCCSSCc1ccccc1CSSCCN 0.96

Field request: Int.* (Ratio) (Interference) | item: COc1ccc(/C=C/c2cc(OC)c(OC)c(OC)c2)cc1OP(=O)(O)O 0.91

Field request: Int.* (Ratio) (Interference) | item: CCCCCCCCCCCCCCCCCCOCC(COCCOCC[N+]1(CCCCCC(=O)[O-])CCCC1)Oc1ncccn1 (stereo not drawn) 0.98

Field request: Int.* (Ratio) (Interference) | item: CC(=O)NC1C(OCc2ccccc2)OC(CO)C(O)C1OC(C)C(=O)NC(C(=O)NC(CCC(=O)NCCCCNc1c2ccccc2nc2cccc([N+](=O)[O-])c12)C(N)=O)C(C)C (stereo not drawn) 0.97

Field request: Int.* (Ratio) (Interference) | item: CC(=O)[O][Sn]([CH2]c1ccccc1)([CH2]c1ccccc1)[CH2]c1ccccc1 1.04

Field request: Int.* (Ratio) (Interference) | item: COc1cc2c(c(OC)c1OC)-c1ccc(OC)c(=O)cc1[C@@H](NC(=O)c1ccccc1)CC2 1.16

Field request: Int.* (Ratio) (Interference) | item: O=C(Nc1ccccc1-c1nn(C(=S)Nc2ccccc2)c(=S)n(C(=S)Nc2ccccc2)c1=O)C(F)(F)F 0.87

Field request: Int.* (Ratio) (Interference) | item: CCC1=C(C[C@H]2NCCc3cc(OC)c(OC)cc32)C[C@H]2c3cc(OC)c(OC)cc3CCN2C1 1.08

Field request: Int.* (Ratio) (Interference) | item: C=C(C)C(=O)OC1CCC2(C)C(CCC3C2CCC2(C)C(c4ccc(=O)oc4)CC4OC432)C1 (stereo not drawn) 1.09

Field request: Int.* (Ratio) (Interference) | item: CN(C)CCCN1c2ccc3ccccc3c2Sc2cccc(Cl)c21 0.81

Field request: Int.* (Ratio) (Interference) | item: CC(C)c1oc(=O)cc2c1[C@@H](O)[C@H]1OC(=O)[C@@]3(C)[C@@H](O)[C@H]4O[C@H]4[C@@]2(C)[C@@H]13 0.89

Field request: Int.* (Ratio) (Interference) | item: N[C@H](C(=O)O)[C@@H]1CC(Cl)=NO1 0.91

Field request: Int.* (Ratio) (Interference) | item: CN=c1sc2c(n1C)C(=O)c1ccccc1C2=O 1.06

Field request: Int.* (Ratio) (Interference) | item: O=C(Nc1ccc(Sc2ccc(N=Nc3c(O)c(S(=O)(=O)O)cc4cc(S(=O)(=O)O)ccc34)cc2)cc1)c1ccc(N=Nc2c(O)ccc3c(S(=O)(=O)O)cc(S(=O)(=O)O)cc23)cc1 0.85

Field request: Int.* (Ratio) (Interference) | item: COC(=O)c1ccccc1OCc1cc(=O)oc2ccc(C)cc12 0.97

Field request: Int.* (Ratio) (Interference) | item: Nc1nc(N)c(N=Nc2ccccc2)c(=O)[nH]1 1.02

Field request: Int.* (Ratio) (Interference) | item: CC[C@@]1(O)C(=O)OCc2c1cc1n(c2=O)Cc2cc3c(N)cccc3nc2-1 0.96

Field request: Int.* (Ratio) (Interference) | item: C[C@H]1O[C@@H](c2ccc3c(c2O)C(=O)C2=C(C3=O)[C@@]3(O)C(=O)C[C@](C)(O)C[C@@]3(O)C=C2)C[C@@H](O)[C@@H]1O 1.09

Field request: Int.* (Ratio) (Interference) | item: Nc1cc2[nH]cnc2c(=O)[nH]1 0.96

Field request: Int.* (Ratio) (Interference) | item: Cc1cc(=O)[nH]c(NN2C(Cl)C(=O)C2c2c(O)ccc3ccccc23)n1 (stereo not drawn) 1.02

Field request: Int.* (Ratio) (Interference) | item: COc1nc(C(Cl)(Cl)Cl)c(Cl)c(OC)c1Cl 0.93

Field request: Int.* (Ratio) (Interference) | item: CCOC(C)C(C=NNC(N)=S)=NNC(N)=S (stereo not drawn) 1.10

Field request: Int.* (Ratio) (Interference) | item: O=C1C(Cl)=C(N2CCN(C3=C(Cl)C(=O)c4ccccc4C3=O)CC2)C(=O)c2ccccc21 1.09

Field request: Int.* (Ratio) (Interference) | item: O=C([O-])c1ccc(Nc2c3ccccc3nc3ccccc23)cc1.[Na+] 1.02

Field request: Int.* (Ratio) (Interference) | item: Cc1ccc(N=Nc2c(O)ccc3ccccc23)cc1 1.23

Field request: Int.* (Ratio) (Interference) | item: C/C(=N\Nc1nc2ccccc2s1)c1ccncn1 0.98

Field request: Int.* (Ratio) (Interference) | item: CCOC(=O)c1ccc(N=Cc2ccc(N(CCC#N)CCC#N)cc2)cc1 1.17

Field request: Int.* (Ratio) (Interference) | item: CC1=C(N2CC2)C(=O)C(CO)=C(N2CC2)C1=O 0.90

Field request: Int.* (Ratio) (Interference) | item: CCCCCC/C=C\CCCCCCCCCc1cccc(OC)c1O 1.11

Field request: Int.* (Ratio) (Interference) | item: Nc1ccccc1N 0.97
